ASSAYED_TARGET: ROS1-G2032R (Homo sapiens, UniProt P08922, G2032R)
Sequence (P08922 1945-2222 G2032R limits assumed): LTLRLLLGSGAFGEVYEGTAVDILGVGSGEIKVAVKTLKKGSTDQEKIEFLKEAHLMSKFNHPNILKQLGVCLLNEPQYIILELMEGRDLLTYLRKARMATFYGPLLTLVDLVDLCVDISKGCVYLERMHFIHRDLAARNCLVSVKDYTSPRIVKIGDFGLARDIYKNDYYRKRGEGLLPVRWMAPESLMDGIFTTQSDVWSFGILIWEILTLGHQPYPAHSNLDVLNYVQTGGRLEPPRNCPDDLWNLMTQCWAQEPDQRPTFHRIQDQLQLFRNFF
ASSAY_REMARKS: Biochemical kinase assay, ROS1-G2032R kinase domain
CONDITION_NOTES: apparent inhibitory constant, Morrison equation; ATP 2 mM in substrate solution; read-out: ROS1-G2032R Ki^app
pKi: −log10 of the molar value.
REPORTED_ENDPOINT: pKi

Cc1nn(CC(C)C)c2c1Cn1ncnc1-c1ccc(F)cc1[C@@H](C)Oc1cc-2cnc1N [Example 79] : < 6.30
C[C@H]1Oc2cc(cnc2N)-c2c(C#N)noc2Cc2nn(C)nc2-c2ccc(F)cc21 [Example 25] : 6.30 to 7.30
C[C@H]1Oc2cc(cnc2N)-c2c(cnn2CC2CC2)Cc2ncc(F)cc2-c2ccc(F)cc21 [Example 72] : > 7.30
C[C@H]1Oc2cc(cnc2N)-c2c(nnn2CC2CC2)Cc2nn(C)nc2-c2ccc(F)cc21 [Example 51] : > 7.30
C[C@H]1Oc2cc(cnc2N)-c2c(cnn2C2CCC2)Cn2ncc(C#N)c2-c2ccc(F)cc21 [Example 10] : > 7.30
CCn1ncc2c1-c1cnc(N)c(c1)O[C@H](C)c1cc(F)ccc1-c1nccnc1C2 [Example 36] : > 7.30

# next compound below
Query: What does the record list as pKi for C[C@H]1Oc2cc(cnc2N)-c2c(CC3CC3)nn(C)c2Cn2ncnc2-c2ccc(F)cc21 [Example 99] ?
Response: > 7.30

====

pKi: −log10 of the molar value.
Parameter pKi, tested on TRKA-wt (Homo sapiens, UniProt P04629), listed per item.
Sequence (P04629 510-781 limits assumed): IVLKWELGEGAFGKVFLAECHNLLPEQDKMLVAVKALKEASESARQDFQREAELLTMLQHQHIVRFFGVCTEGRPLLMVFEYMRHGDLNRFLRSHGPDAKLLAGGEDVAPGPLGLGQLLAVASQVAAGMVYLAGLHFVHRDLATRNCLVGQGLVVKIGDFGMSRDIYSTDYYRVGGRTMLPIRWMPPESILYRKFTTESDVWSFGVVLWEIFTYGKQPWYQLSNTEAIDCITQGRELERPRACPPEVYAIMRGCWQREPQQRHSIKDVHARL

Query: Which measured pKi value corresponds to CCn1ncc2c1-c1cnc(N)c(c1)O[C@H](C)c1cc(F)ccc1-c1c(C#N)cnn1C2 ?
Response: 6.30 to 7.30

====

Recorded pIC50 by entry
ASSAYED_TARGET: Ba/F3 cells TPM3-TRKA (Homo sapiens, UniProt P04629)
Construct: the other entry of the earlier key: TPM3 (P06753, Tropomyosin alpha-3 chain)
Sequence (P04629 510-796 limits assumed): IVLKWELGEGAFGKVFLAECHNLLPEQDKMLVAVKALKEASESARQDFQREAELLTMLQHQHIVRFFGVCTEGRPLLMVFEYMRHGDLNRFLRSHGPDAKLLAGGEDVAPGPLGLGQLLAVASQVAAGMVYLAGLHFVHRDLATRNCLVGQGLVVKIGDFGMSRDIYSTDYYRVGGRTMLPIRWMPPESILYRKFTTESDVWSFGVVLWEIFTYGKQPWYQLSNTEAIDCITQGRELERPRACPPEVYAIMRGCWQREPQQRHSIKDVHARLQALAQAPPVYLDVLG
ASSAY_REMARKS: Ba/F3 cell proliferation assay, TPM3-TRKA
CONDITION_NOTES: 72 hours, CellTiter-Glo, read-out: TPM3-NTRK1-wt IC50
pIC50: −log10 of the molar value.

Worked cases, answers included:
C[C@H]1Oc2cc(cnc2N)-c2c(c(Cl)nn2CC2CC2)Cc2nn(C)cc2-c2ccc(F)cc21 [Example 90] : < 6.30
C[C@H]1Oc2cc(cnc2N)-c2c(cnn2C2CCC2)Cc2nn(C)nc2-c2ccc(F)cc21 [Example 13] : < 6.30
CCn1ncc2c1-c1cnc(N)c(c1)O[C@H](C)c1cc(F)ccc1-c1c(F)cnn1C2 [Example 8] : < 6.30
CCn1ncc2c1-c1cnc(N)c(c1)O[C@H](C)c1cc(F)ccc1-n1nc(C)nc1C2 [Example 40] : 6.30 to 7.30
CCn1ncc2c1-c1cnc(N)c(c1)O[C@H](C)c1cc(F)ccc1-c1nccnc1C2 [Example 36] : 6.30 to 7.30

Query: For the record CCc1nn(C)c2c1-c1cnc(N)c(c1)O[C@H](C)c1cc(F)ccc1-c1nn(C)nc1C2 [Example 98] , what value of pIC50 is listed for Ba/F3 cells TPM3-TRKA (Homo sapiens, UniProt P04629)?
Response: 6.30 to 7.30

Query: Notebook: pull reported pIC50 for Ba/F3 cells TPM3-TRKA (Homo sapiens, UniProt P04629), entry CCn1ncc2c1-c1cnc(N)c(c1)O[C@H](C)c1cc(F)ccc1-c1nsnc1C2 [Example 62]
Response: 6.30 to 7.30

Query: Request - read-out pIC50 | tested on Ba/F3 cells TPM3-TRKA (Homo sapiens, UniProt P04629) | compound C[C@H]1Oc2cc(cnc2N)-c2c(CC3CC3)noc2Cc2nn(C)nc2-c2ccc(F)cc21 [Example 63]
Response: 6.30 to 7.30
